System: HCT-15
Experiment: NCI 60-cell line one-dose antiproliferative screen (SRB)
Type: cell-based
Conditions: Homo sapiens, read-out: growth inhibition % (GI%)
ATTRIBUTE MEASURED: inhibition at 10 µM

Qu. Write down the reported inhibition at 10 µM (system: HCT-15) of Cc1ccc(C(=O)c2ccc(CC(=O)NN=Cc3ccc4c(c3)OCO4)n2C)cc1 [Compound 5d]
Ans. < 10%

Qu. Specify inhibition at 10 µM for Cc1ccc(C(=O)c2ccc(CC(=O)NN3C(=O)CCC3=O)n2C)cc1 [Compound 7a] , system HCT-15.
Ans. < 10%

Qu. Name the recorded inhibition at 10 µM of Cc1ccc(C(=O)c2ccc(CC(=O)NN=Cc3ccc(O)cc3O)n2C)cc1 [Compound 5c] , assay system HCT-15.
Ans. 83.2%

Qu. Report the value of inhibition at 10 µM obtained on HCT-15 for Cc1ccc(C(=O)c2ccc(CC(=O)NN=C3C(=O)Nc4ccccc43)n2C)cc1 [Compound 6a] .
Ans. < 10%

Qu. State recorded inhibition at 10 µM with HCT-15, entry Cc1ccc(C(=O)c2ccc(CC(=O)NN=Cc3cccc(O)c3O)n2C)cc1 [Compound 5b] , no comment.
Ans. 84.3%

Qu. Find inhibition at 10 µM for Cc1ccc(C(=O)c2ccc(CC(=O)NNC(=O)Nc3c(C)cccc3Cl)n2C)cc1 [Compound 8b] on HCT-15 and write it down.
Ans. < 10%

Qu. // fetch inhibition at 10 µM; item: Cc1ccc(C(=O)c2ccc(CC(=O)NN=Cc3cc4ccccc4[nH]3)n2C)cc1 [Compound 5e] ; system: HCT-15
Ans. 12.6%

Qu. Under HCT-15: report inhibition at 10 µM of Cc1ccc(C(=O)c2ccc(CC(=O)NN3C(=O)C=CC3=O)n2C)cc1 [Compound 7b] .
Ans. < 10%

Qu. # assay system HCT-15: give inhibition at 10 µM of Cc1ccc(C(=O)c2ccc(CC(=O)NN3C(=O)c4ccccc4C3=O)n2C)cc1 [Compound 7c]
Ans. < 10%
